Hello, the source for this data is patent US20220204489A1, in case you need it.

Target: hKv3.1b (Homo sapiens, UniProt P48547)
Construct: expressed in transfected cells
Sequence (P48547 1-585 isoform P48547-2): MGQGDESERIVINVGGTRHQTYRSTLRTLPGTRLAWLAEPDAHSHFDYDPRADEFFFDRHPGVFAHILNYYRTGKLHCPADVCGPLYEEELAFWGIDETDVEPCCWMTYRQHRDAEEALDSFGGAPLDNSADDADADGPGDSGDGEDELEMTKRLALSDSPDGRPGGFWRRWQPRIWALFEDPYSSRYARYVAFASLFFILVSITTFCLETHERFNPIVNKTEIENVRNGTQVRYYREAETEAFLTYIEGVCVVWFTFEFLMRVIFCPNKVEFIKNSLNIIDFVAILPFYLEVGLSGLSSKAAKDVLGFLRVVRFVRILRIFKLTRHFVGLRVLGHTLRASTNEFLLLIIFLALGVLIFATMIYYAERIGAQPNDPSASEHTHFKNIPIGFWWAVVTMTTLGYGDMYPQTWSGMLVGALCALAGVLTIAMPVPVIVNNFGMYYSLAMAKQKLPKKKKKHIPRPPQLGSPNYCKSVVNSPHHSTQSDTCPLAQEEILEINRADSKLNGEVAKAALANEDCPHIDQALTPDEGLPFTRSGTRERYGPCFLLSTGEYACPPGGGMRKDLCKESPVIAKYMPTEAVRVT
Assay: QPatch automated whole-cell patch-clamp, shift of voltage threshold for channel activation
Format: cell-based
Conditions: HEK-293 cells stably expressing hKv3.1b; maximum absolute shift of activation threshold to more hyperpolarized potentials at tested concentrations (0.37, 1.11, 3.33, 10, 30 μM)
Label rule, in plain words: Max threshold shift of 20 mV and up is y, under 20 mV is n.

Recorded results for 3 compounds are shown here.
INSERT INTO results (structure_smiles_string, assigned_category) VALUES
  ('Cc1ccc(S(=O)(=O)c2ccc(C(=O)NCc3cnccn3)s2)cc1', 'y'),
  ('Cc1ccc(S(=O)(=O)c2ccc(C(=O)NCc3cnc(C)cn3)o2)cc1', 'y'),
  ('Cc1ccc(S(=O)(=O)c2ccc(C(=O)NCc3ccc(C)nc3)s2)cc1', 'y');

Decide: Max threshold shift of `Cc1cnc(CNC(=O)c2ccc(S(=O)(=O)c3ccccc3)s2)cn1` >= 20 mV?
n

Decide: Max threshold shift of `Cc1cc(F)ccc1S(=O)(=O)c1ccc(C(=O)NCc2cnccn2)s1` >= 20 mV?
n

Decide: Max threshold shift of `Cc1ccc(S(=O)(=O)c2ccc(C(=O)NCc3ncc(C)cn3)s2)cc1` >= 20 mV?
n

Decide: Max threshold shift of `Cc1ccc(S(=O)(=O)c2ccc(C(=O)NCc3cc(C)no3)s2)cc1` >= 20 mV?
n

Decide: Max threshold shift of `Cc1ccc(S(=O)(=O)c2ccc(C(=O)NCc3cnn(C)c3)s2)cc1` >= 20 mV?
n

Decide: Max threshold shift of `Cc1cnc(CNC(=O)c2ccc(S(=O)(=O)c3ccc(F)cc3C)s2)cn1` >= 20 mV?
y

* * *

Biological target: hKv3.1b (Homo sapiens)
Construct: expressed in transfected cells
Test: QPatch automated whole-cell patch-clamp, shift of voltage threshold for channel activation
Format: cell-based
Settings: HEK-293 cells stably expressing hKv3.1b; concentration needed to shift the threshold 5 mV, read from fitted concentration response curve
Label rule, in plain words: ECdelta5mV of 2000 nM and up is true (1), under 2000 nM is false (0).

Recorded results for 5 molecules are shown here.
INSERT INTO measurements (structure_smiles_string, assigned_category) VALUES
  ('Cc1cnc(CNC(=O)c2ccc(S(=O)(=O)c3ccccc3C)s2)cn1', 'false (0)'),
  ('Cc1ccc(S(=O)(=O)c2ccc(C(=O)NCc3ccc(C)nc3)s2)cc1', 'true (1)'),
  ('Cc1ccc(S(=O)(=O)c2ccc(C(=O)NCc3ccn(C)n3)s2)cc1', 'true (1)'),
  ('Cc1cc(F)ccc1S(=O)(=O)c1ccc(C(=O)NCc2cnccn2)s1', 'true (1)'),
  ('Cc1cnc(CNC(=O)c2ccc(S(=O)(=O)c3ccc(F)cc3)s2)cn1', 'true (1)');

Kindly review the next molecule as well.
Decide: ECdelta5mV of `Cc1ccc(S(=O)(=O)c2ccc(C(=O)NCc3ccn(C)n3)o2)cc1` >= 2000 nM?
true (1)

* * *

Molecular target: hKv3.1b (Homo sapiens)
Construct: expressed in transfected cells
Assay: QPatch automated whole-cell patch-clamp, shift of voltage threshold for channel activation
Type: cell-based
Details: HEK-293 cells stably expressing hKv3.1b; concentration needed to shift the threshold 5 mV, read from fitted concentration response curve
Experimental: HEK-293 cells stably expressing hKv3.1b was used for the experiments. Cells were cultured in DMEM medium supplemented with 10% Fetal Bovine Serum, 100 ug/mL Geneticidin and 100 u/mL Penicillin/Streptomycin (all from Gibco). Cells were grown to 80-90% confluency at 37° C. and 5% CO2. […] Leak subtraction protocol was applied at −33% of the sweep amplitude, and serial resistance values were constantly monitored. […]
quantity: ECdelta5mV (nM)
Please reply with the bare figure in nM and do not write the unit itself.

The cases that follow already have their ECdelta5mV on record.
INSERT INTO results (compound, value_units, test_result) VALUES
  ('Cc1ccc(S(=O)(=O)c2ccc(C(=O)NCc3cnccn3)s2)cc1 [Compound 10]', 'nM', 1200),
  ('Cc1ccc(S(=O)(=O)c2ccc(C(=O)NCc3cc(C)no3)s2)cc1 [Compound 13]', 'nM', 2600),
  ('Cc1ccc(S(=O)(=O)c2ccc(C(=O)NCc3cccnc3)s2)cc1 [Compound 8]', 'nM', 2900),
  ('Cc1ccc(S(=O)(=O)c2ccc(C(=O)NCc3ncc(C)cn3)s2)cc1 [Compound 6]', 'nM', 3100),
  ('Cc1ccc(S(=O)(=O)c2ccc(C(=O)NCc3ccc(C)nn3)s2)cc1 [Compound 14]', 'nM', 2000);

Kindly review the next compound as well.
Look up ECdelta5mV: Cc1cnc(CNC(=O)c2ccc(S(=O)(=O)c3ccc(Cl)cc3)s2)cn1 [Compound 2]
1200
